All figures here come from patent US11427548B2.

tested-target: Androgen Receptor (Homo sapiens, UniProt P10275)
Construct: endogenous in cells; host or cells: VCaP cells
Sequence (P10275 1-920): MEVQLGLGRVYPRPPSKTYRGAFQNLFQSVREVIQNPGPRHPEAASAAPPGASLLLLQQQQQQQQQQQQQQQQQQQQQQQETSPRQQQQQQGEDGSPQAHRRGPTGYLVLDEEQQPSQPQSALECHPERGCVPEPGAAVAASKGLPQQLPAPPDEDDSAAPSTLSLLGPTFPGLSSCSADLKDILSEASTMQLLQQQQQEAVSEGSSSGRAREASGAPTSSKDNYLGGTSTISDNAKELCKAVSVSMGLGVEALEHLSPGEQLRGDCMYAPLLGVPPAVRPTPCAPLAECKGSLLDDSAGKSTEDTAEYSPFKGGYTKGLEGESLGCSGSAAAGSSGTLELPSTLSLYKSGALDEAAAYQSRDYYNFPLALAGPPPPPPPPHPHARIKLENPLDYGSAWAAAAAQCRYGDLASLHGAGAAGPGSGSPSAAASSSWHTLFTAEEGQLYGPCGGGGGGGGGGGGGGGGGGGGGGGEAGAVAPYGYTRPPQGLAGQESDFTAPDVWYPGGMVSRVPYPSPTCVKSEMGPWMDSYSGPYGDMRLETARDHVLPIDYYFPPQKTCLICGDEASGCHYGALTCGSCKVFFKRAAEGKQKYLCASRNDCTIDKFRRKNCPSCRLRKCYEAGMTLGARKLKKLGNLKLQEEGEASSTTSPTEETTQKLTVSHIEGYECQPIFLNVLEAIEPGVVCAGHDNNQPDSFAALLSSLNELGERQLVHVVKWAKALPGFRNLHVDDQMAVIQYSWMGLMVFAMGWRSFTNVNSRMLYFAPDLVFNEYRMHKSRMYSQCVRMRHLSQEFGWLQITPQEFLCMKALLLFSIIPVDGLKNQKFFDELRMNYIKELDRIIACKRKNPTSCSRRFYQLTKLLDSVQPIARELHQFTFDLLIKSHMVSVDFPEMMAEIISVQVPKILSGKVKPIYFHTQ
assay-method-text: Androgen Receptor ELISA assay (PathScan AR ELISA) in VCaP cells: AR degradation, Dmax and DC50
Type: cell-based
condition-notes: VCaP cells; Table 36; read-out: VCaP DC50
measured-attribute: DC50

Use the examples below as a reference point.
>>> measured_result("Cc1ncsc1-c1ccc([C@H](C)NC(=O)[C@@H]2C[C@@H](O)CN2C(=O)[C@@H](NC(=O)CN2CCN(CCCCN3CCN(c4ccc(C(=O)N[C@H]5C(C)(C)[C@H](Oc6ccc(C#N)c(Cl)c6)C5(C)C)cn4)CC3)CC2)C(C)(C)C)cc1 [Example 804]")
"< 50 nM"
>>> measured_result("Cc1ncsc1-c1ccc([C@H](C)NC(=O)C2C[C@@H](O)CN2C(=O)C(NC(=O)CCCN2CCN(c3ccc(C(=O)N[C@H]4C(C)(C)[C@H](Oc5ccc(C#N)c(Cl)c5)C4(C)C)cn3)CC2)C(C)(C)C)cc1 (stereo partly shown) [Example 768]")
"> 501 nM"
>>> measured_result("CO[C@@H]1C[C@@H](C(=O)N(C)Cc2ccc(-c3scnc3C)cc2)N(C(=O)[C@@H](N(C)C(=O)COCCCCCN(C)c2ccc(C(=O)N(C)[C@H]3C(C)(C)[C@H](Oc4ccc(C#N)c(C(F)(F)F)c4)C3(C)C)nc2)C(C)(C)C)C1 [Example 709]")
"> 501 nM"

Here's the next entry for you.
Exam item: Query (compound): Cc1ncsc1-c1ccc(C(NC(=O)[C@@H]2C[C@@H](O)CN2C(=O)C(NC(=O)COCCN2CCN(c3ccc(C(=O)N[C@H]4C(C)(C)[C@H](Oc5ccc(C#N)c(C(F)(F)F)c5)C4(C)C)cn3)CC2)C(C)(C)C)C2COC2)cc1 (stereo partly shown) [Example 704] ; field requested: DC50
Marked response: > 501 nM

###

tested-target: Androgen Receptor (Homo sapiens, UniProt P10275)
Construct: endogenous in cells; host or cells: VCaP cells
Sequence (P10275 1-920): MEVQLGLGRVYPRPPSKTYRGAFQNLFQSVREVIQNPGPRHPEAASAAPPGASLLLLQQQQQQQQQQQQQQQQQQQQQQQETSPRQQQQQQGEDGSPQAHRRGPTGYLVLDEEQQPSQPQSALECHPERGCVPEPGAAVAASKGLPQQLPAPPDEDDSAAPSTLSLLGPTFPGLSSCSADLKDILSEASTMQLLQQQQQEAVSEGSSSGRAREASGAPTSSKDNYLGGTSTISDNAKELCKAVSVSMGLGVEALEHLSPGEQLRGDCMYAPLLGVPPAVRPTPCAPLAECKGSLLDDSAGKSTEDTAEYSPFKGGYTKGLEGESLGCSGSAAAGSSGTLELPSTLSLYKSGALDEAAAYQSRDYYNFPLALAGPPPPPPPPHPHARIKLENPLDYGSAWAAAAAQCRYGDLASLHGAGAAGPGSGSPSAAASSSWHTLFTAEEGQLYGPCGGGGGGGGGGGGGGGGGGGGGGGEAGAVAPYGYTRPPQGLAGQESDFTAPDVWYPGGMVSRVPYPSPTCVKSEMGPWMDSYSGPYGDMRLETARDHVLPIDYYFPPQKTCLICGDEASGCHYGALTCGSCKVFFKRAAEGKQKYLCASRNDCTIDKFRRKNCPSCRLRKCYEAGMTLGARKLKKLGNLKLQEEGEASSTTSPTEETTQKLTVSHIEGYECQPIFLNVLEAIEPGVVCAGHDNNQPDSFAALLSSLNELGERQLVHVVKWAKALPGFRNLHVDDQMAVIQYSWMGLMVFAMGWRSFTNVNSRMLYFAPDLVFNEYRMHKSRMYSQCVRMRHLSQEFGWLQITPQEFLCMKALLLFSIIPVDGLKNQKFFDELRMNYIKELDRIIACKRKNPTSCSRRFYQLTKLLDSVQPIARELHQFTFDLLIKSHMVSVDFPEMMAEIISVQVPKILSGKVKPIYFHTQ
assay-method-text: Androgen Receptor ELISA assay (PathScan AR ELISA) in VCaP cells: AR degradation, Dmax and DC50
Format: cell-based
condition-notes: read-out: VCaP DC50; VCaP cells; Table 35
measured-attribute: DC50

>>> measured_result("Cc1ncsc1-c1ccc(CNC(=O)[C@@H]2C[C@@H](O)CN2C(=O)[C@@H](NC(=O)COC[C@@H](O)[C@H](O)COc2ccc(-c3ccc(N4C(=S)N(c5ccc(C#N)c(C(F)(F)F)c5)C(=O)C4(C)C)cc3)cc2)C(C)(C)C)cc1 [Example 566]")
"< 0.05 µM"

Exam item: Param item = Cc1ncsc1-c1ccc([C@H](C)NC(=O)[C@@H]2C[C@@H](O)CN2C(=O)[C@@H](C(C)C)n2cc(OCCCOCCCCCOc3ccc(N4C(=S)N(c5ccc(C#N)c(C(F)(F)F)c5)C(=O)C4(C)C)cc3)cn2)nc1 [Example 427] ; retrieve measured DC50.
Marked response: > 0.501 µM

###

The molecules listed here are annotated with their Dmax.
tested-target: Androgen Receptor (Homo sapiens, UniProt P10275+P40337, T878A)
Construct: Compounds have been evaluated in this assay in LNCaP and/or VCaP cells utilizing similar protocols; endogenous in cells; host or cells: LNCaP cells
assay-method-text: Androgen Receptor ELISA assay (PathScan AR ELISA) in LNCaP cells: AR degradation, Dmax and DC50
Type: cell-based
condition-notes: highest percentage of Androgen Receptor degradation observed

Below, each entry is followed by its recorded Dmax result.
>>> measured_result("Cc1ncsc1-c1ccc([C@H](C)NC(=O)[C@@H]2C[C@@H](O)CN2C(=O)[C@@H](NC(=O)COCCCCOCCCCOc2ccc(N3C(=S)N(c4ccc(C#N)c(C(F)(F)F)c4)C(=O)C3(C)C)cc2F)C(C)(C)C)cc1")
"> 71%"
>>> measured_result("Cc1ncsc1-c1ccc(CNC(=O)[C@@H]2C[C@@H](O)CN2C(=O)[C@@H](NC(=O)COCCCOCCCCCOc2ccc(N3C(=S)N(c4cnc(C#N)c(C(F)(F)F)c4)C(=O)C3(C)C)cc2)C(C)(C)C)cc1")
"> 71%"
>>> measured_result("Cc1ncsc1-c1ccc(CNC(=O)[C@@H]2C[C@@H](O)CN2C(=O)[C@@H](NC(=O)COCCOCCOCCOc2ccc(N3C(=S)N(c4cnc(C#N)c(C(F)(F)F)c4)C(=O)C3(C)C)cc2)C(C)(C)C)cc1")
"26 to 50%"
>>> measured_result("COc1cc(N2C(=O)C(C)(C)N(c3ccc(OCCCCOCCCOCC(=O)N[C@H](C(=O)N4C[C@H](O)C[C@H]4C(=O)NCc4ccc(-c5scnc5C)cc4)C(C)(C)C)cc3)C2=S)ccc1C#N")
"> 71%"
>>> measured_result("Cc1ncsc1-c1ccc(CNC(=O)[C@@H]2C[C@@H](O)CN2C(=O)[C@@H](NC(=O)CCCCOc2ccc(-c3ccc(N4C(=S)N(c5ccc(C#N)c(C(F)(F)F)c5)C(=O)C4(C)C)cc3)cc2)C(C)(C)C)cc1")
"> 71%"
>>> measured_result("Cc1ncsc1-c1ccc(CNC(=O)[C@@H]2C[C@@H](O)CN2C(=O)[C@@H](NC(=O)CCOCCOCCOc2ccc(-c3ccc(N4C(=S)N(c5ccc(C#N)c(C(F)(F)F)c5)C(=O)C4(C)C)cc3)cc2)C(C)(C)C)cc1")
"26 to 50%"
>>> measured_result("Cc1ncsc1-c1ccc(CNC(=O)[C@@H]2C[C@@H](O)CN2C(=O)[C@@H](NC(=O)OCCCCCOc2ccc(-c3ccc(N4C(=S)N(c5ccc(C#N)c(C(F)(F)F)c5)C(=O)C4(C)C)cc3)cc2)C(C)(C)C)cc1")
"> 71%"
>>> measured_result("Cc1ncsc1-c1ccc(CNC(=O)[C@@H]2C[C@@H](O)CN2C(=O)[C@@H](NC(=O)COCCOCCOc2ccc(-c3ccc(N4C(=S)N(c5ccc(C#N)c(C(F)(F)F)c5)C(=O)C4(C)C)cc3)cc2)C(C)(C)C)cc1")
"> 71%"

Exam item: Tell me reported Dmax for Cc1ncsc1-c1ccc(CNC(=O)[C@@H]2C[C@@H](O)CN2C(=O)[C@H](C(C)C)N2Cc3ccccc3C2=O)c(OCCO[C@H](C)[C@@H](C)OCCOc2ccc(N3C(=S)N(c4ccc(C#N)c(C(F)(F)F)c4)C(=O)C3(C)C)cc2)c1 , tested with Androgen Receptor (Homo sapiens, UniProt P10275+P40337, T878A).
Marked response: 51 to 70%
